Biological target: CK2A2 (Homo sapiens, UniProt P19784)
Construct: purchased Eurofins
Sequence (P19784 whole entry): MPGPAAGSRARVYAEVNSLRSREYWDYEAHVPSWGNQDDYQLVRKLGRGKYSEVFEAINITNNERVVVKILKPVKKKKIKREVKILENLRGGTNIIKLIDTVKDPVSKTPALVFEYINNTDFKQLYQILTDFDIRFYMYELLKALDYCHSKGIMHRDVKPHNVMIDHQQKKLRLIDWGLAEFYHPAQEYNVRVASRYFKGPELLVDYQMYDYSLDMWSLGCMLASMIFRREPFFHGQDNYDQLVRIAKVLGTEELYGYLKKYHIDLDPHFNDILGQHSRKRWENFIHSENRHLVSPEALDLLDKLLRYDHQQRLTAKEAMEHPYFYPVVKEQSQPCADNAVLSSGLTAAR
Experiment: Radiometric kinase assay (Eurofins), CK2A2
Format: biochemical
Conditions: Table 3; halogenated flavones; read-out: CK2A2 RAD IC50
Decision: IC50 beneath 20 nM gives satisfied; IC50 meeting or exceeding 20 nM gives not satisfied.

Compound: COc1c(Br)cc2c(=O)cc(-c3ccc(O)c(C(F)(F)F)c3)oc2c1Br [JKT.750A]
Class label: not satisfied
--
Compound: COc1ccc2c(=O)cc(-c3ccc(O)c(Br)c3)oc2c1Br [JKT.780A]
Class label: not satisfied
--
Compound: O=c1cc(-c2ccc(O)c(Br)c2)oc2c(Cl)cccc12 [JKT.777A]
Class label: not satisfied
--
Compound: O=c1cc(-c2ccc(O)c(Cl)c2)oc2c(Br)cc(Cl)cc12 [JKT.722A]
Class label: satisfied

Problem: For the compound COc1c(Br)cc2c(=O)cc(-c3cc(F)c(O)c(F)c3)oc2c1Br [JKT.753A] , is IC50 under 20 nM?
not satisfied

Problem: For the compound COc1c(Br)cc2c(=O)cc(-c3ccc(O)c(Br)c3)oc2c1Br [JKT.745A] , is IC50 under 20 nM?
satisfied

Problem: For the compound O=c1cc(-c2ccc(O)c(Cl)c2)oc2c(Br)cccc12 [JKT.749A] , is IC50 under 20 nM?
satisfied

Problem: For the compound COc1c(Br)cc2c(=O)cc(-c3ccc(O)c(Cl)c3)oc2c1Br [JKT.748A] , is IC50 under 20 nM?
satisfied
